The measurements presented in this section are drawn from the supplement of paper PMC8633005.

Could you please report measured drug sensitivity score for the items listed next?
System: FM-MEL-6
Assay: drug sensitivity score (DSS) (DSS (unitless, 0-50 scale)); higher = more sensitive (stronger viability inhibition); extreme values may be limits of the assay
Conditions: 72 h; culture: 2D
API note: the answer field is a bare number with no unit suffix.

So, CO[C@H]1C[C@@H]2CC[C@@H](C)[C@@](O)(O2)C(=O)C(=O)N2CCCC[C@H]2C(=O)O[C@H]([C@H](C)C[C@@H]2CC[C@@H](OCCO)[C@H](OC)C2)CC(=O)[C@H](C)/C=C(\C)[C@@H](O)[C@@H](OC)C(=O)[C@H](C)C[C@H](C)/C=C/C=C/C=C/1C [Everolimus] ? Its drug sensitivity score was 3.6

drug sensitivity score reading for NC(=O)N1CCC(CC(=O)N2CCC([C@H]3c4ncc(Br)cc4CCc4cc(Cl)cc(Br)c43)CC2)CC1 [Lonafarnib] : 8.1

C[C@]12CC[C@H](O)CC1=CC[C@@H]1[C@@H]2CC[C@]2(C)C(c3cccnc3)=CC[C@@H]12 [Abiraterone] yielded drug sensitivity score of 0

---

What drug sensitivity score was measured for each of the following?
Test system: FM-MEL-6
Experiment: drug sensitivity score (DSS) (DSS (unitless, 0-50 scale)); higher = more sensitive (stronger viability inhibition); extreme values may be limits of the assay
Conditions: 72 h; culture: 2D
Answer as a number with no unit attached.

The reported drug sensitivity score of the compound "CC(=O)OC[C@H]1O[C@@H]([S-])[C@H](OC(C)=O)[C@@H](OC(C)=O)[C@@H]1OC(C)=O.CCP(CC)CC.[Au+]" was 2.6

The value of drug sensitivity score measured for the compound "CNC(=O)c1ccccc1Nc1nc(Nc2ccc3c(c2OC)CCC[C@H](N2CCN(CCO)CC2)C3)ncc1Cl" turned out to be 7.6

drug sensitivity score reported for this compound "Cc1cc(F)c(C(=O)Nc2cccc(-c3nncn3C(C)C)n2)cc1-n1cnc(C2CC2)c1" : 0

Entry "O=C(/C=C/c1cccc(S(=O)(=O)Nc2ccccc2)c1)NO" — recorded drug sensitivity score = 13.9

drug sensitivity score reading for "Cc1cc([C@@H](C)Nc2ccccc2C(=O)O)c2nc(N3CCOCC3)cc(=O)n2c1" : 1.4

Record summary for "COc1ccc(Cn2ccc3ccc(C(=O)NO)cc32)cc1" : reported drug sensitivity score = 0

drug sensitivity score measured on "Nc1nccc(-c2c(-c3ccc(F)cc3)ncn2C2CCCCC2)n1" = 0

Given item "COc1cc(Nc2c(C#N)cnc3cc(OCCCN4CCN(C)CC4)c(OC)cc23)c(Cl)cc1Cl" , the value recorded as its drug sensitivity score is 4.9

Lab note: "COC(=O)c1ccc([C@H]2c3[nH]c4ccccc4c3C[C@H](C(=O)OC)N2C(=O)CCl)cc1" gave drug sensitivity score of 0

Field drug sensitivity score (entry "C[C@@H]1CN(Cc2ccc(F)cc2)[C@@H](C)CN1C(=O)c1cc2c(C(=O)C(=O)N(C)C)cn(C)c2cc1Cl" ) reads 0

// drug sensitivity score lookup, compound = "CN1CCc2c(c3ccccc3n2Cc2ccc(C(=O)NO)cc2)C1" , result: 0

The measured drug sensitivity score associated with "CC(C)C[C@H](NC(=O)[C@@H](COC(C)(C)C)NC(=O)[C@H](Cc1ccc(O)cc1)NC(=O)[C@H](CO)NC(=O)[C@H](Cc1c[nH]c2ccccc12)NC(=O)[C@H](Cc1cnc[nH]1)NC(=O)[C@@H]1CCC(=O)N1)C(=O)N[C@@H](CCCNC(=N)N)C(=O)N1CCC[C@H]1C(=O)NNC(N)=O" reads 0

# drug sensitivity score (compound: "Cn1ncc(Cl)c1-c1cc(C(=O)N[C@H](CN)Cc2ccc(F)c(F)c2)oc1Cl" ) is 0

In plain terms, "O=C(Nc1ccncc1)C(=O)c1cn(Cc2ccc(Cl)cc2)c2ccccc12" has a documented drug sensitivity score of 6.9

The reported drug sensitivity score of the compound "Nc1ncnc2c1nc(Cl)n2[C@@H]1O[C@H](CO)[C@@H](O)[C@H]1O" was 7.5
